// values below are reported Death of flies, % Tests in laboratory
Tested on: domestic flies
Experimental Protocol: insecticidal activity, laboratory test in gauze boxes
Type: in vivo
Measurement Setup: 2% solution in 5% aqueous glucose; observed in 48-72 hours

Illustrative cases are given below, each with its answer.
Molecule	Death of flies, % Tests in laboratory
CCCCOP(=NC(CCl)C(O)c1ccc([N+](=O)[O-])cc1)(OCCCC)OCCCC (stereo not shown)	96.0%
COP(=NC(CCl)C(Cl)c1ccc([N+](=O)[O-])cc1)(OC)OC (stereo not shown)	85.2%
CC(C)OP(=NC(CCl)C(O)c1ccc([N+](=O)[O-])cc1)(OC(C)C)OC(C)C (stereo not shown)	90.9%

### Prompt Value lookup for Death of flies, % Tests in laboratory; key = CCOP(=NC(CCl)C(Cl)c1ccc([N+](=O)[O-])cc1)(OCC)OCC (stereo not shown)
### Response 89.9%

### Prompt Value lookup for Death of flies, % Tests in laboratory; key = CCCCOP(=NC(CCl)C(Cl)c1ccc([N+](=O)[O-])cc1)(OCCCC)OCCCC (stereo not shown)
### Response 92.0%

### Prompt Value lookup for Death of flies, % Tests in laboratory; key = CC(C)OP(=NC(CCl)C(Cl)c1ccc([N+](=O)[O-])cc1)(OC(C)C)OC(C)C (stereo not shown)
### Response 92.0%

### Prompt Value lookup for Death of flies, % Tests in laboratory; key = O=[N+]([O-])c1ccc(C(Cl)C(CCl)N=P(OC(CCl)c2ccccc2)(OC(CCl)c2ccccc2)OC(CCl)c2ccccc2)cc1 (stereo not shown)
### Response 71.3%
